target: Rhodesain (TbCatL) (Trypanosoma brucei rhodesiense, UniProt Q95PM0); construct: stably transformed with the rhodesain ΔC gene cloned into the pPICZαA vector; made in house; host or cells: Pichia pastoris X-33 (pPICZαA, secreted into the culture supernatant); test: Fluorimetric rhodesain inhibition assay with Z-Phe-Arg-AMC; format: biochemical
Sequence (Q95PM0 entry or part of it): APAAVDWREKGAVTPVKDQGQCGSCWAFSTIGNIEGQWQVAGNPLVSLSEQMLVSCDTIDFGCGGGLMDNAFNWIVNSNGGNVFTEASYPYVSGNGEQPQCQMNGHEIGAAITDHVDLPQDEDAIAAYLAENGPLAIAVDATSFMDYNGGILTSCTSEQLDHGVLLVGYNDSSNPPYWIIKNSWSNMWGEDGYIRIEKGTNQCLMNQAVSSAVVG
readout type: Ki (µM)

>  <smiles string>
C[C@H](NC(=O)[C@H](CCc1ccccc1)Nc1cc(F)c([N+](=O)[O-])cc1[N+](=O)[O-])C(=O)O

>  <tested target>
Rhodesain (TbCatL) (Trypanosoma brucei rhodesiense, UniProt Q95PM0)

>  <readout type>
Ki

>  <unit abbreviation>
µM

>  <readout value>
13

$$$$
>  <smiles string>
CC(C)C[C@H](NC(=O)[C@H](Cc1ccccc1)Nc1ccc([N+](=O)[O-])c([N+](=O)[O-])c1)C(=O)O

>  <tested target>
Rhodesain (TbCatL) (Trypanosoma brucei rhodesiense, UniProt Q95PM0)

>  <readout type>
Ki

>  <unit abbreviation>
µM

>  <readout value>
0.0028

$$$$
>  <smiles string>
C[C@H](Nc1cc(F)c([N+](=O)[O-])cc1[N+](=O)[O-])C(=O)N[C@@H](CCc1ccccc1)C(=O)O

>  <tested target>
Rhodesain (TbCatL) (Trypanosoma brucei rhodesiense, UniProt Q95PM0)

>  <readout type>
Ki

>  <unit abbreviation>
µM

>  <readout value>
13

$$$$
>  <smiles string>
CC(C)C[C@H](NC(=O)[C@H](Cc1ccccc1)Nc1ccccc1[N+](=O)[O-])C(=O)O

>  <tested target>
Rhodesain (TbCatL) (Trypanosoma brucei rhodesiense, UniProt Q95PM0)

>  <readout type>
Ki

>  <unit abbreviation>
µM

>  <readout value>
39

$$$$

These measurements were taken from paper PMC11173422.
